# studySystem: T1, biotinylated cTfR1 (Acro Bio p/n TFR-C8249) (cynomolgus monkey, UniProt H9EXL1 89-760 (rhesus entry), biotinylated; site not stated)
# T1 construct: Bought reagent of the BLI assay
# T1 sequence (chain, as listed by the source): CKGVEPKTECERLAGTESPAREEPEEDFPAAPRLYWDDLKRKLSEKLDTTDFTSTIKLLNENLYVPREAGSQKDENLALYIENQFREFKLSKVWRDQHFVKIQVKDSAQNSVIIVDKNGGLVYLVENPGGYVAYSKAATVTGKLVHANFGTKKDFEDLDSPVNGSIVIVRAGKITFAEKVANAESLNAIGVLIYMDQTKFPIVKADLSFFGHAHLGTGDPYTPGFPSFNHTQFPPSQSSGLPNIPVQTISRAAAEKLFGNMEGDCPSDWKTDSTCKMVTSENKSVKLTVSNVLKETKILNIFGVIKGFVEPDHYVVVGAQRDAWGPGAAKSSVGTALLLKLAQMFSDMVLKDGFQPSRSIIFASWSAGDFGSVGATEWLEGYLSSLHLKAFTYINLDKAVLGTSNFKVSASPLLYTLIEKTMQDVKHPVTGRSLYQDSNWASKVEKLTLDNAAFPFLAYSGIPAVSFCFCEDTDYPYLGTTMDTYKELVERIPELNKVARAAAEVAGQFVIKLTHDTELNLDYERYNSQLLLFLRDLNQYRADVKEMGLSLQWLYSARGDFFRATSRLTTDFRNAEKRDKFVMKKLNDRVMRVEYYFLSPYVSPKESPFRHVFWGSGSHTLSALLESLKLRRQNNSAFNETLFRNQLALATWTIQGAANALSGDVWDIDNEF
# procedureDetails: BLI, Octet RH16, biotinylated TfR1 on streptavidin sensor; Fab-siRNA conjugate
recordedMetric: kon (M⁻¹ s⁻¹)
Response body: numeric value in M⁻¹ s⁻¹, unit text excluded.

{"columns": ["binder", "kon (M⁻¹ s⁻¹)"],
 "data": [
  ["Fab0063-siRNA conjugate (Fab, V domains shown, siRNA-linker on a reduced cysteine; chain and residue not stated, also called Fab0063 (BLI conjugate columns)) VH: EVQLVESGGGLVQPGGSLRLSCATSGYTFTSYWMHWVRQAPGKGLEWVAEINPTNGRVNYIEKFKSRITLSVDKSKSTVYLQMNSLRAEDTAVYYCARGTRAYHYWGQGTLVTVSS VL: DIQLTQSPSSLSASVGDRVTITCRASDGLYSNLAWYQQKPGKAPKLLIYDATRLASGVPSRFSGSGSGTDYTLTISSLQPEDFATYYCQHFWGTPLTFGQGTKVEIKR", 263000]
]}

## Task Could you share which kon value was measured for Fab0064-siRNA conjugate (Fab, V domains shown, siRNA-linker on a reduced cysteine; chain and residue not stated, also called Fab0064 (BLI conjugate columns)) VH: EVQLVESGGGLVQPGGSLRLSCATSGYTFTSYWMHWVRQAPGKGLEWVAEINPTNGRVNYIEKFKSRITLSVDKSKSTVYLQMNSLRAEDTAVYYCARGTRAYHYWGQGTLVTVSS VL: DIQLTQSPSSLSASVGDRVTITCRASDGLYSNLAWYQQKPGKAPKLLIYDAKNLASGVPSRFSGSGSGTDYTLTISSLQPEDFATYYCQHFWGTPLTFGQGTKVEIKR ?
## Result 319000

## Task What about this binder? Fab0073-siRNA conjugate (Fab, V domains shown, siRNA-linker on a reduced cysteine; chain and residue not stated, also called Fab0073 (BLI conjugate columns)) VH: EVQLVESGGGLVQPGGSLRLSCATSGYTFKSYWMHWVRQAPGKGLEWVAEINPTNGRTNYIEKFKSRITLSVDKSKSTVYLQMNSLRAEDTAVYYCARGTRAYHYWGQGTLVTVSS VL: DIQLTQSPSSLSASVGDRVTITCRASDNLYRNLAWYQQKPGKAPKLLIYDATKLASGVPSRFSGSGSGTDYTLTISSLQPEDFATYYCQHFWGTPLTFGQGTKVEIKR
## Result 348000
